Kindly state log10(IC50) for each of the entries shown.
# measurement_target: Purine nucleoside phosphorylase (Bos taurus)
# Sequence (P55859 whole entry): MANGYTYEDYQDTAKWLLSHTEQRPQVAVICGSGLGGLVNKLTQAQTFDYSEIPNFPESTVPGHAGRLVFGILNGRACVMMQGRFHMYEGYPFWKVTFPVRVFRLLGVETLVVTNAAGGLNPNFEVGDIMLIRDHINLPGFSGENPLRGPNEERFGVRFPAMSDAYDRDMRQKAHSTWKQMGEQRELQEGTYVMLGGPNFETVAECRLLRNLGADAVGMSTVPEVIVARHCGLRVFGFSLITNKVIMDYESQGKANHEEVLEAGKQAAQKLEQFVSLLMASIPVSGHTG
# assay_name: Inhibition of Purine nucleoside phosphorylase was evaluated against the enzyme from calf spleen in 50 mM phosphate
Would you kindly interpret these values as log10 of IC50 expressed in nM?

Q: Please report the measured log10(IC50) for Nc1nc(O)c2c(n1)CC(c1cccnc1)=N2
Result: -0.80

Q: Please report the measured log10(IC50) for Cc1cccc(Cc2c[nH]c3c(=O)[nH]c(N)nc23)c1
Result: 2.43

Q: Please report the measured log10(IC50) for Nc1nc(O)c2[nH]cc(Cc3ccc(O)cc3)c2n1
Result: 3.36

Q: Please report the measured log10(IC50) for Nc1nc2c(Cc3cccnc3)c[nH]c2c(=O)[nH]1
Result: 2.28

Q: Please report the measured log10(IC50) for Nc1nc2c(Cc3ccc(Cl)c(Cl)c3)c[nH]c2c(=O)[nH]1
Result: 2.40
